Source listed as the supplement of paper PMC12455559.

Catalogue of sequences with associated PET hydrolysis
experiment: PET hydrolysis, aromatic products released after 48 h (umol product/mg enzyme); higher = more PET depolymerization activity; conditions: substrate: aFilm; 60 °C; pH 7.5

Reference set, count: 2
Query string: Entry under review: NPYERGPDPTTASIEASRGSFATSTVTVSRLAVSGFGGGTIYYPTTTTAGTFGAISIAPGFTATQSSMAWLGPRLASQGFVVFTIDTITTSDQPDSRGRQLLASLDYLTQQSSVRSRIDSSRLGVVGHSMGGGGTLEAARSRPSLQAAVPLTGWNLTKNWSTLRVPTLVVGAQSDTIAPVASHSIPFYTSLPSTLDRAYLELRGASHFAPNTSNTTIAKYTLSWLKRFIDNDTRYEQFLCPIPSSSLSISDYRGNCPHNG [ESM167] . Reported PET hydrolysis?
Result string: 2.5

Query string: Entry under review: AANPYERGPAPTAASIAATTGPFAVASVSVPRGNGFGGGVIYYPTSTSQGTFGGVAISPGLNGTWAGIAWLGPRLASQGFVIFGIETNNLNDSPASRGTQLLAALDFLTRSSSVRTRVDASRLAVAGHSMGGGGALSAALQRPSLQAAIGNAPHLPSGSLATDRVPTLIYAMQNDTLVTPSRLTSLYNSMPATTERAYIEVAGAGHNYIGQPSTTLARTMIPWLKIFVDNDARYSQFLCPLSNQSGISQYRNSCPLISTTTLSTGVDSTSGLAVR [ESM157] . Reported PET hydrolysis?
Result string: < 3

Pending sequence:
Query string: Entry under review: ADNPYQRGPDPTAASIAAVTGPFATASVTVPRGNGFGGGVIYYPTDTSQGTFGGIAISPGLNGTWPGIAWLGPRLASQGFVVFGIETNNLNDSPTSRGTQLLAALDYLTGSSSVRTRVDAGRLAVAGHSMGGGGALDAALRRPSLRATIGNAPHLPSGSLANDRVPTLIYAMQNDTLVPPSRLTSLYNTVPATTERGYLEITGAGHNYIGQPSTILARTMIPWLKIFVDDDARYSQFLCPLTDRSGISQYQSSCPLITTSPTTGPTAQPTTAAPTTTPTTPPVGGPCEATHRTVNSWSGGYQGEVTVRAGSAAINGWTVSWTLGSGQTINQVWGGALTASGTAATVRNETWNGPVAAGASTTFGYIATGNAPTQPLACSAR [ESM060] . Reported PET hydrolysis?
Result string: < 3

---

experiment: PET hydrolysis, aromatic products released after 48 h (umol product/mg enzyme); higher = more PET depolymerization activity; conditions: substrate: cryPow; 60 °C; pH 6.5
parameter: PET hydrolysis

Reference set, count: 2
Query string: Entry under review: SNPTPTPTPTPTPTPTPGNNPFQRGPNPTLSFIEANSGPYSVRTSRVSSYTSGFGGGTIHYPTGQSGTMGAIVVIPGFVSAESSIEWWGPKLASHGFVVMTIDTNSGFDQPPSRARQINAALDYLVAQNRSSRSPVRGMIDTNRLGVVGWSMGGGGTLRVASEGRIKAAIPLAPWDTTSFRNVKAPTLIFACESDVIAPVGQHASPFYNELPSNISKAFVELNGGSHYCGNGGNSYNDVLSRFGVSWMKRFLDNDTRYSQFLCGPNHTSDRDISEYRGNCNY [ESM042] . Reported PET hydrolysis?
Result string: < 3

Query string: Entry under review: ADTPYERGPNPSESLIEQRRGNYDIAQRSISRFSSDGFRNGTIYYPTDTSDGKFGVIAISPGYTAGESSIAWLGSRIASFGFVVVTINTTTRYDQPRQRSTQLLAALDHAMNDSVVGPLIDPERQAVMGHSMGGGGALQAAESRPEIDAVVALTPWNLKKNWDGVDAATLIIGAERDTVASVRTHSIPFYESLTQAEQRGYLELRGASHFAPNVSNTTIAKYSIAWMKRYLDNDDRYDQFLNPGPAVGYASGVSDYRLQ [DP003] . Reported PET hydrolysis?
Result string: < 3

Pending sequence:
Query string: Entry under review: LTPSPTPPPTGGTGGCPADAICRGETPGSYSANGPYGSRSYTLSRIQTPGGATVYYPANAEPPFSGLVFTPPYTGSQFMYRAWGPFFASHGIVMVTMDTRTTLDSVDQRAAQQKQVLDALKAENTRSASPLRGKLDTSRLGAVGWSMGGGATWINSAEYSGLKTAMSLAGHNLSALDINARGSNTRVPTLIMNGALDATYLGGLGQSLGVYNNIPRGIPKVIYEVSSAGHFSWGSPTSAGRSVAQIALAFQKTFLDGDTRWATYIRRPSSGVATWRTANLP [ESM175] . Reported PET hydrolysis?
Result string: < 3

---

experiment: PET hydrolysis, aromatic products released after 48 h (umol product/mg enzyme); higher = more PET depolymerization activity; settings: substrate: aFilm; 40 °C; pH 7.5
parameter: PET hydrolysis

Query string: Entry under review: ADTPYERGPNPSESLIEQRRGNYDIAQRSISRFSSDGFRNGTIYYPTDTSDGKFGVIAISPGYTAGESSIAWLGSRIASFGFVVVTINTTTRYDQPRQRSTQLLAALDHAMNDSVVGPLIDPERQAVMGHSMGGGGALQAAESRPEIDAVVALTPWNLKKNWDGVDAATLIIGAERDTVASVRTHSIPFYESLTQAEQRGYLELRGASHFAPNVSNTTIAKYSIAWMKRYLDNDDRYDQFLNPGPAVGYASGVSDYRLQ [DP003] . Reported PET hydrolysis?
Result string: < 3

Query string: Entry under review: QSAEASPPHGPDPTEESITAPRGPFEIDQKTVSRASVRGFGGGTIYYPTDTSEGTFSAVAIAPGYTAGQESLAWLGPRLASQGFVVFTIDTLTRYDQPDSRSRQLLAALDHLTDDSDVADRVDPARRGVMGHSMGGGGSLQAALDDPDLKAAIPMTPWHTTKDFSGVRTPTLIIGAQNDTVAPVSQHAKPFYESLPDDPGKAYLELAGASHFAPNVDNTTIARYSIAWLKRFLDDDTRYEQFLCPPPPDPAISDHQSTCPY [TEP105] . Reported PET hydrolysis?
Result string: 7.5

Query string: Entry under review: MSNPYQRGPNPTRSALTADGPFSVATYTVSRLSVSGFGGGVIYYPTGTSLTFGGIAMSPGYTADASSLAWLGRRLASHGFVVLVINTNSRFDGPDSRASQLSAALNYLRTSSPSAVRARLDANRLAVAGHSMGGGGTLRIAEQNPSLKAAVPLTPWHTDKTFNTSVPVLIVGAEADTVAPVSQHAIPFYQNLPSTTPKVYVELCNASHIAPNSNNAAISVYTISWMKLWVDNDTRYRQFLCNVNDPALCDFRTNNRHCQLEHHHHHH [LCC-ICCG] . Reported PET hydrolysis?
Result string: 58.9

Query string: Entry under review: AVHGPDPTDALLEASRGPYATAQIDVSALAVSGFGGGTIYYPTTTSEGTFGGVAIAPGYTADKSSLAWLAARLASHGFVVFNIDTLTRLDQPDSRGRQLLAALDYLTQRSSVRSRVDASRLGVMGHSMGGGGTLEAAVSRPSLRAAVPLTPWNLDKTWPEVRTPTLIIGADLDTIAPVLTHAEPFYASLPSTLDKAYLELNNATHFAPNITDTTIGKYAVAWMKRFIDDDTRYNRFLCPGPSWSLSVEEYRSTCPF [TEP061] . Reported PET hydrolysis?
Result string: < 3

Query string: Entry under review: MAENPYERGPAPTTSSIEASRGSFATSTVTVSRLAVSGFGGGTIYYPTSTTAGTFGAISIAPGFTALQSSIAWLGPRLASQGFVVFTIDTLTTSDQPDSRGRQLLAALDYLTQQSSVRSRIDSSRLGVVGHSMGGGGTLEAARSRPSLQAAIPLTGWNLTKTWSTVRVPTLVVGAQADTVAPVASHSIPFYNSLPSSLDKAYLELRGASHFAPNSSNTTIAKYTLSWLKRFIDNDTRYEQFLCPIPSTSLSISDYRGNCPHNG [TEP182] . Reported PET hydrolysis?
Result string: < 3

Pending sequence:
Query string: Entry under review: AGNPYQRGPDPTLASVAASRGTFATAQVSVPAGNGFNGGTIYYPTDSSQGTWGAVAIVPGYTALFANEEAWMGPWLASFGFVVIGIETNSRTDFDTARGTQLLAALDYLTQKSPVRDRVDSARLGVIGHSMGGGGVVYATEHRPSLKAAVALAPFSPSQDMSTDHVPTMVMGGQNDTVVTPSYLDGLYATMPASTQSDFVQLAGADHVAYTHPNTTEMRLLIPWLKIFLDDDTRYTQFLCPLMDSTGVSAYHSKCPYVPPGGSTSTPTPTPTITPTPPPSGACSATYRTVNSWSGGYQGEVTVTAGDAAINGWTVRWNLGGGQTVTQVWNGTLSTSGSTATVTNASYNGSLQASASTTFGFLANGTPSTPAITCTSP [TEP114] . Reported PET hydrolysis?
Result string: < 3

---

experiment: PET hydrolysis, aromatic products released after 48 h (umol product/mg enzyme); higher = more PET depolymerization activity; settings: substrate: cryPow; 40 °C; pH 5.5
parameter: PET hydrolysis

Query string: Entry under review: ADNPYQRGPDPTRASVAAVNGPFVNTSVSVPTGYGFNGGRIYYPTDTSQGTFGAIAISPGYTALFSAELAWMGPWLASHGFVVIGIETNSRNDFDTARGTQLLAALDYLTQQSPVRDRVDPNRLAVSGHSMGGGGALSAAIRRSSLKAAVGITPYSPSQNLANDRVPTMVISGQADTVVTPSYALGLYNSLPASTESVYLEVAGGDHGFMVGRSNPVLIRTMLPFLKMFVDNDSRYSQFLCPLLDSSGVVTYRSTCPLLPTNPTTPPPTGTPTPTPTSTPTPTPTPTTPPPSGSANE [ESM091] . Reported PET hydrolysis?
Result string: 28

Query string: Entry under review: AGFERGPDPSTSTLDAARGPFAVAEERVYSWRASGFGGGDIYYPTTTSEGTFGVVAVAPGYTAGRSSMAWLASRIASHGFVVINIDTLTRSDQPASRGRQLLAALDHVTSSSGVRDRVDASRQAVVGHSMGGGGALEAASSRPALQAAVPLTPWNLTKRWSSLQVPTFIVGAENDSVASVRTHAEPFYESLPAALPKAYLELNNASHFAPNTTNSTIGRYTVAWLKRYVDDDLRYSQFLCPPPPPSSAIEEFRATC [DP087] . Reported PET hydrolysis?
Result string: < 3

Pending sequence:
Query string: Entry under review: ATGPSSPCTNCTRGPNPTVAALKSNSGPFSTAKFSVSGYLKGFGDSTVYYPTNTTGKMGAIAVIPGYLSYESSIEWWGPRLASHGFVVITMNTNTIYDQPDSRATQLSKALDYVIAQSNSSSSPIAGKVDSTRLGAIGWSMGGGGSLKLSTQRSLNAIIPQAPYYAGSNSFNTIKTPTLILACGVDAVAPVAAHASPFYNKIPNTTPKAFLEIYGGSHFCANSGYPNQDLLGMYGISWMKRFIDFDKRYSQFLCGPNHQADLAISEYRQNCNY [ESM048] . Reported PET hydrolysis?
Result string: < 3
